# Run description: log P (pH2.3)
# Type: physicochemical
# Condition details: reversed-phase HPLC column (C18); method [b]: LC-MS, acidic range, pH 2.7, 0.1% aqueous formic acid and acetonitrile
Consider the following compounds; for each one, report its chromatographic logP.
Give a plain numeric answer without units written out.

Could you tell me which chromatographic logP is on file for COc1ccccc1C#Cc1csc(C2CCN(C(=O)Cn3nc(C(F)(F)F)cc3C)CC2)n1 [Example I-103] ? 3.67

Could you tell me which chromatographic logP is on file for O=C(Cc1ccsc1)N1CCC(c2nc(CCc3ccccc3)cs2)CC1 [Example I-63] ? 3.47

Could you tell me which chromatographic logP is on file for C#Cc1csc(C2CCN(C(=O)Cn3nc(C(F)(F)F)cc3C)CC2)n1 [Example I-86] ? 2.57

Could you tell me which chromatographic logP is on file for Cc1cc(C(F)(F)F)nn1CC(=O)N1CCC(c2nc(/C=C\c3ccc4ccccc4c3)cs2)CC1 [Example I-20] ? 4.61
